Experiment: Quantitative highthroughput screen to assess conditional lethalithy of P12 Ichikawa cells grown in Human Plasma-Like Medium with dialyzed fetal bovine serum (HPLM+ds) (AID 1963879); further: nearly all actives have a fitted effect of over 35% in size
Conditions: ATP luminescence, 48 h; viability; series mostly up to 45.8 µM
Description: Assay Provider: Jason Cantor Ph.D. Department of Biochemistry University of Wisconsin-Madison, Madison, WI, USA Chemical screening studies have identified drug sensitivities across hundreds of cancer cell lines but most putative therapeutics fail to translate. […] Sets of conditional anticancer compounds spanned phases of clinical development and included non-oncology drugs were assessed. […] 6; Detection; Luminescence, Viewlux PerkinElmer. […]
Inconclusive results are not listed. The source made the active and inactive calls. The call rests on the fitted dose curve; in most records, active means well fitted cell-killing curve with a large enough effect; inconclusive means small, poorly fitted or top-dose-only effect; inactive means flat fitted curve, though single readings scatter.
Hi! Could you answer with just one of these? active, inactive

compound=O=C1NC(=O)C(=Cc2ccc(-c3ccc(F)cc3O)o2)S1 label=inactive
compound=CC(=O)OCCN1C(=O)c2c(C)nc3ccc(S(=O)(=O)N4CCOCC4)cc3c2C1=O label=active
compound=CCCCCN(C)CCC(O)(P(=O)(O)O)P(=O)(O)O label=inactive
compound=O=C(O)CCNc1cc(N2CCc3ccccc3CC2)nc(-c2ccccn2)n1 label=inactive
compound="Cc1nccn1CC1CCc2c(c3ccccc3n2C)C1=O (stereo unspecified)" label=inactive

For C[C@]12CC[C@@H]3c4ccc(O)cc4CC[C@H]3[C@H]1C[C@@H](O)[C@H]2O , which call appears in the assay record?
inactive

For COC1CCC(C(=O)c2ccc3nc4c(cc3c2)CCCO4)CC1 (stereo unspecified) , which call appears in the assay record?
inactive

For C[Se]CCC(N)C(=O)O (stereo unspecified) , which call appears in the assay record?
inactive

For CCC(C)(C)c1ccc(CC(C)CN2C[C@@H](C)O[C@@H](C)C2)cc1 (stereo partly specified) , which call appears in the assay record?
inactive

For Cc1nc(N)ncc1-c1nc(N2CCOCC2)c2sc(C(C)(C)O)cc2n1 , which call appears in the assay record?
active

For CCN1CCC(n2cc(CNc3cc(Cl)c4ncc(C#N)c(Nc5ccc(F)c(Cl)c5)c4c3)nn2)CC1 , which call appears in the assay record?
active

For COc1cc(Nc2c(C#N)cnc3cc(OCCCN4CCN(C)CC4)c(OC)cc23)c(Cl)cc1Cl , which call appears in the assay record?
active
